Hello, the source for this data is patent US20080021044A1, in case you need it.

TEST_SUMMARY: Solubility of the compound of formula (I) as a function of time in aqueous solvents (HPLC)
Format: physicochemical
CONDITION_SET: simulated gastric fluid, thermodynamic from solid; 0.1N HCl; 2 hr; 25° C. water bath, agitated
METRIC: solubility at 2 h (mg/mL)
Answers are plain numbers, in mg/mL.

[Q] Need solubility at 2 h, item "Cc1cnc(NCC(F)(F)c2ccccc2)c(=O)n1CC(=O)NCCONC(=N)N"
[A] 40.9

----------
TEST_SUMMARY: Solubility of the compound of formula (I) as a function of time in aqueous solvents (HPLC)
Assay type: physicochemical
CONDITION_SET: aqueous buffer, thermodynamic from solid; citrate buffer pH 2; 2 hr; 25° C. water bath, agitated
METRIC: solubility at 2 h
Record the result as number plus unit.

[Q] Need solubility at 2 h, item "Cc1cnc(NCC(F)(F)c2ccccc2)c(=O)n1CC(=O)NCCONC(=N)N"
[A] 8800 µg/mL
